assay: basal RPMI8226 mitochondrial membrane potential changes, profiling panel, cell-based, JC-1 fluorescence, 24 h, 100 nL compound (AID 1169); details: RPMI8226 myeloma, JC-1 mitochondrial potential fluorescence, higher = more signal; note: test concentration not given here
Each entry belongs to exactly one class, chosen by where its z-score falls: category 1 (below -0.3), category 2 (-0.3 to below 0.2), category 3 (0.2 or more)

Here's what some known entries look like.
1) CC(C)=NO[C@H](C)c1cn([C@@H]2COC[C@H]2O)nn1 ... category 2
2) C=CC[C@@H]1C=C[C@H](Oc2ccc(C)cc2)[C@@H](COC(=O)NCc2cccc3ccccc23)O1 ... category 3
3) O=C1[C@H]2[C@H]3[C@H](O)[C@H](O)CC(=NOC[C@@H](O)COCc4ccco4)[C@@H]3CC[C@H]2C(=O)N1C1CCCCC1 ... category 1
4) CCCNC(=O)OC[C@H]1O[C@H](CCON=C2c3cc(OC)ccc3O[C@H](c3cccc(OC)c3)[C@H]2O)C=C[C@@H]1Oc1ccc(OC)cc1 ... category 2
5) CCN1C(=O)[C@H]2[C@H]3[C@H](O)[C@H](O)CC(=NNC(=O)OCc4ccccc4)[C@H]3CC[C@H]2C1=O ... category 2
6) CCOC(=O)[C@H](Cc1ccccc1)NC(=O)CCC1CC(OC(=O)NCc2cccc3ccccc23)CC2(CCCC(COC(=O)NCCc3ccc(Cl)cc3)O2)O1 (stereo not given in full) ... category 2

Task: Form: Item = COC(=O)[C@@H]1CC[C@H](C)[C@@H](c2ccc(Br)cc2)N1C[C@H](O)CN=[N+]=[N-] ; Class = ?
Result: category 1

Task: Which z-score category applies to CN1CCc2nc(-c3ccccc3)c(-c3ccccc3)cc2C1 here?
Result: category 3

Task: Place this compound in its band: O=C1[C@H]2CCn3c(=O)n(-c4ccccc4)c(=O)n3[C@H]2[C@H](O)[C@@H]2O[C@H]12
Result: category 2

Task: Exam item: assign COC(=O)[C@H](C)NC(=O)CCC1CC(OC(=O)NCc2ccc3c(c2)OCO3)CC2(CCCC(COC(=O)NCCCN3CCCC3=O)O2)O1 (stereo not given in full) to the correct category.
Result: category 1

Task: State the band of CC(CCN1CCc2nc(-c3ccccc3)c(-c3ccccc3)cc2C1)=NO[C@H](C)c1cn([C@H](CO)Cc2ccccc2)nn1
Result: category 3

Task: Record COC(=O)[C@H](C)NC(=O)CCC1CC(OC(=O)NCCc2ccc(F)cc2)CC2(CCCC(COC(=O)NCc3ccccc3)O2)O1 (stereo not given in full) — which class?
Result: category 3

Task: Returns: class label. Input: CC(C)(C)N1C(=O)[C@H]2[C@@H]3C(=CC[C@H]2C1=O)C(=O)[C@H]1O[C@H]1[C@H]3O
Result: category 1

Task: Band for CCc1cc2c(nc1CC)CCN(CCC(C)=NO[C@@H]1O[C@H](COC(C)=O)[C@@H](OC(C)=O)[C@H](OC(C)=O)[C@H]1OC(C)=O)C2 ?
Result: category 2

Task: Each compound maps to one class by z-score. Which class for COc1ccc(COC(=O)NN=C2C[C@@H](O)[C@@H](O)[C@@H]3[C@@H]4C(=O)N(C[C@@H]5CCCO5)C(=O)[C@@H]4CC[C@@H]23)cc1 ?
Result: category 2

Values compiled from PubChem BioAssay.
